Data origin, for the record: paper PMC7982521

Test: Multi-component pharmacokinetics in rat plasma after oral administration of RB, RPA or RB-RPA extracts (UPLC-HRMS, non-compartmental analysis)
Type: in vivo, Sprague-Dawley rats
Settings: rat plasma, oral RB-RPA mixed extracts (45 g-herb/kg RB + 45 g-herb/kg RPA), mean ± SD, n = 7
result type: Cmax (ng/mL)

>>> result_number("CC(=O)OC[C@H]1O[C@@H](O[C@H]2[C@@H](O)[C@@H](C)O[C@@H](O[C@H]3CC[C@@]4(C)[C@@H](CC[C@]5(C)[C@@H]4C=CC46OCC7(CCC(C)(C)C[C@H]74)[C@@H](O)C[C@]65C)[C@]3(C)CO)[C@@H]2O)[C@H](O)[C@@H](O)[C@@H]1O (stereo partly drawn)")
27.55

P. C[C@]12C[C@@H](O)[C@@H]3C[C@@]1(O[C@@H]1O[C@H](CO)[C@@H](O)[C@H](O)[C@H]1O)[C@@]3(COC(=O)c1ccccc1)C(=O)O2
Q. CC1(C)CC[C@]23CO[C@@]4(C=C[C@@H]5[C@@]6(C)CC[C@H](O)[C@@](C)(CO)[C@@H]6CC[C@@]5(C)[C@]4(C)C[C@H]2O)[C@@H]3C1
Exercise: Of P and Q , whose reported Cmax is the larger number? Return value: the label identifying the chosen record.
Solution: P
(P: 365.94 ng/mL, Q: 12.67 ng/mL)
